Biological target: MHC class I allele B*0702 (B7) (Homo sapiens)
Test: iTopia peptide binding assay, B*0702
Conditions: percent of positive control peptide binding; peptide at 1.11×10^−5M
Method: The 9 mers were tested for Peptide Binding, Off Rate and Affinity using iTopia Epitope Discovery System in accordance with the manufacturer's instructions. […] Determinations are performed in duplicate using an ELISA plate reader and included allele specific positive controls. […] Following a period of binding under optimal conditions, excess antibody is removed and a measurement of total fluorescence taken (D). […]
Assign Peptide binding, MHC Class I Molecule B*0702 to each entry below.

Data request, read-out Peptide binding, MHC Class I Molecule B*0702, for AFSGSNASV [Peptide 81]
14 % of control

Moving on to ERQNRSFEG [Peptide 95]
1 % of control

Moving on to SLRQLDLSH [Peptide 72]
13 % of control

Moving on to MPGGCSRGP [Peptide 1]
3 % of control

* * *

molecular target: MHC class I allele A*0201 (A2) (Homo sapiens, UniProt P04439, D140Y/D185E/D98H/E176V/E277Q/G131W/G231S/I119V/I121R/I166T/I218V/L300P/L318F/N151K/N90K/P208A/P217A/Q86G/Q94H/R138H/R169H/T345S); assay: iScore multi-parametric analysis, A*0201; type: binding; conditions: level of binding: >0.5, 0.25-0.5, <0.25
No end group written: not given here.
Assign iScore, MHC Class I Molecule A*0201 to each entry below.
API doc: respond with a numeric literal and nothing else, no unit.

Data request, read-out iScore, MHC Class I Molecule A*0201, for HMEGYHYRY [Peptide 198]
0.24

Moving on to LSHNPLADL [Peptide 75]
0.095

Moving on to RLDEVRAGA [Peptide 65]
0.422

Moving on to LTNLSSNSD [Peptide 206]
0.027

Moving on to FSSSAPFLA [Peptide 21]
0.116

Moving on to KWMHNIRDA [Peptide 192]
0.045

Moving on to GAFARRPPL [Peptide 55]
0.222

Moving on to YPEKMRNRV [Peptide 163]
0

Moving on to LEDNALKVL [Peptide 133]
0.122

Moving on to LSGSRLDEV [Peptide 63]
0.075

Moving on to FEGMVVAAL [Peptide 98, FEGMVVAAL]
0.051

Moving on to LYLPRDVLA [Peptide 112]
0.218

Moving on to SLVSLTYVS [Peptide 123]
0.206

Moving on to SSAPFLASA [Peptide 22]
0.389
